Reference for the values: patent US20180339057A1

Overview of reported pIC50 across a group of binders:
Biological target: T1, human MIC-1 receptor (hGFRAL, GDNF family receptor alpha like), full length (human, UniProt Q6UXV0 19-394)
T1 construct: whole, on cells
T1 sequence (looked up): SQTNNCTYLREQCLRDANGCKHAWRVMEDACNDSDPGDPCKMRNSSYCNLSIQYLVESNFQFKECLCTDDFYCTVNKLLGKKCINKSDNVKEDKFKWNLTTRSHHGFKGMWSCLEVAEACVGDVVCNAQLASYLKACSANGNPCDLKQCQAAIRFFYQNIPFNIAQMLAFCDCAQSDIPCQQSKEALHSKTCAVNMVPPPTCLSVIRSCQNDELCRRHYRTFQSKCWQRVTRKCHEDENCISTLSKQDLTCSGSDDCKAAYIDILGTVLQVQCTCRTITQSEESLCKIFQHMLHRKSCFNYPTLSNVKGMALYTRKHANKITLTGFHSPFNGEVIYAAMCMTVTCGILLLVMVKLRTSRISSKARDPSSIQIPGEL
Test: SPA: displacement of 50 pM human [125I]-MIC-1 from BHK21-hGFRAL-IRES-hRET cell membranes
pIC50: −log10 of the molar value.
parameter.measured: pIC50

binder	assay.value
SEPATSGSETPGTSESACPESGPGTSTEPSEG-MIC-1, des-N3, M57L, M86L (Cys mutation T(-15)C) (ligand, homodimer; no protractor) SEPATSGSETPGTSESACPESGPGTSTEPSEGARGDHCPLGPGRCCRLHTVRASLEDLGWADWVLSPREVQVTMCIGACPSQFRAANLHAQIKTSLHRLKPDTVPAPCCVPASYNPLVLIQKTDTGVSLQTYDDLLAKDCHCI	7.54
Compound 20 (ligand, Cys-29 (residue 4 of SEQ ID NO: 288): S{Beta}-[2-[[(1S)-1-carboxy-5-[[2-[2-[2-[[2-[2-[2-[[(4S)-4-carboxy-4-[12-(4-carboxyphenoxy)dodecanoylamino]butanoyl]amino]ethoxy]ethoxy]acetyl]amino]ethoxy]ethoxy]acetyl]amino]pentyl]amino]-2-oxoethyl]Cys (protractor of Example 10.9), homodimer, two protractors per dimer) SEPCTSGSETPGTSESATPESGPGTSTEPSEGARGDHCPLGPGRCCRLHTVRASLEDLGWADWVLSPREVQVTMCIGACPSQFRAANMHAQIKTSLHRLKPDTVPAPCCVPASYNPMVLIQKTDTGVSLQTYDDLLAKDCHCI	8.19
Compound 17 (ligand, Cys-29 (residue 4 of SEQ ID NO: 288): S{Beta}-[2-[2-[[2-[2-[2-[[2-[2-[2-[[(4S)-4-carboxy-4-(16-sulfohexadecanoylamino)butanoyl]amino]ethoxy]ethoxy]acetyl]amino]ethoxy]ethoxy]acetyl]amino]ethylamino]-2-oxoethyl]Cys (protractor of Example 10.6), homodimer, two protractors per dimer) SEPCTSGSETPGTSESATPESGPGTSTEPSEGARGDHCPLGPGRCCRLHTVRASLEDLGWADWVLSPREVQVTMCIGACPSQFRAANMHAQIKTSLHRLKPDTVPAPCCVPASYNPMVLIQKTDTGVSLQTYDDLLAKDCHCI	8.33
Compound 03 (ligand, Cys-27 (residue 6 of SEQ ID NO: 291): S{Beta}-[2-[2-[[2-[2-[2-[[2-[2-[2-[[(4S)-4-carboxy-4-(15-carboxypentadecanoylamino)butanoyl]amino]ethoxy]ethoxy]acetyl]amino]ethoxy]ethoxy]acetyl]amino]ethylamino]-2-oxoethyl]Cys (protractor of Example 10.2), homodimer, two protractors per dimer) SEPATCGSETPGTSESATPESGPGTSTEPSEGARGDHCPLGPGRCCRLHTVRASLEDLGWADWVLSPREVQVTMCIGACPSQFRAANMHAQIKTSLHRLKPDTVPAPCCVPASYNPMVLIQKTDTGVSLQTYDDLLAKDCHCI	7.96
